# assay-system: Dual specificity protein phosphatase 6 (Rattus norvegicus)
# test: MKP-3 phosphatase inhibitors, primary screen, biochemical, rat enzyme, in vitro (AID 425);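 further: plate controls were vehicle for no effect and reference inhibitor for full effect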
# conditions: recombinant MKP-3 phosphatase activity, fluorescence; at 20 µM; stronger effect = higher value
Among all 110,000 compounds or so, about 190 (0.17%) were called active. What follows is part of a selection rich in actives, with near analogues and random picks from the rest. Entries with a potency or affinity are not part of this list.
value-kind: inhibition (%)
Answers are plain numbers, in %.

# compound, assay-system, unit-symbol, inhibition
rows = [
    ("Cc1ccc(-c2nc(-c3cc4cc([N+](=O)[O-])c(O)cc4oc3=O)cs2)cc1", "Dual specificity protein phosphatase 6 (Rattus norvegicus)", "%", -1.3),
]

Provide inhibition values for the following items, in order.
1. CCOc1ccc(NC(=O)CSC(N)=O)cc1
2. COc1ccc(NC(=O)C(=O)NCc2ccco2)cc1Cl

-0.4
-2.8

Provide inhibition values for the following items, in order.
1. COc1ccc2nc(SCC(=O)Nc3ccccc3)[nH]c2c1
2. COC(=O)c1ccccc1NC(=O)c1ccccc1C
3. Cc1ccc2nc(-c3cccc(NC(=O)c4ccco4)c3)[nH]c2c1
4. O=C(Nc1ccc(-c2nc3ccccc3[nH]2)cc1)c1ccc(Cl)c(Cl)c1
5. N#CC1=C(N)N(c2ccccc2)C(c2ccco2)C1(C#N)C#N (stereo unspecified)
6. O=C(Nc1ccc(Cl)c(-c2nc3ccccc3[nH]2)c1)c1cc2ccccc2o1

[-2.1, 0.2, 0.4, 51.8, -9.8, 5]

Provide inhibition values for the following items, in order.
1. O=c1oc2cc(O)c([N+](=O)[O-])cc2cc1-c1csc(-c2cc3ccccc3oc2=O)n1
2. O=C(Nc1ccc(-c2nc3ccccc3[nH]2)cc1)c1ccccc1

85.1
-0.7

====

# assay-system: Dual specificity protein phosphatase 6 (Rattus norvegicus)
# test: MKP-3 phosphatase inhibitors, primary screen, biochemical, rat enzyme, in vitro (AID 425);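 further: plate controls were vehicle for no effect and reference inhibitor for full effect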
# conditions: recombinant MKP-3 phosphatase activity, fluorescence; at 20 µM
Hit rate of the full screen: of about 110,000 compounds, about 190 (0.17%) were called active. Cut-off read from the data, not from the text of the source: active = inhibition above about 50%; inactive = the rest. The entries come from a sample that favours actives as a whole. Results with a measured potency or affinity are listed apart.
Hello, when you answer, please use one of the following outcomes: active, inactive

Solved entries (count: 2):
# compound, qualitative-label
data = [
    ("Cc1ccc(S(=O)(=O)Nc2cc(C)c(O)c(Sc3ncn[nH]3)c2)cc1", "inactive"),
    ("O=c1/c(=C\\c2ccc(-c3cccc(Br)c3)o2)sc2nc3ccccc3n12", "inactive"),
]

Hi, sorry to bother you, what did the test record for COc1cc(C=C2C(=O)c3ccccc3C2=O)cc(Br)c1OCC(=O)O ? inactive

====

# assay-system: Dual specificity protein phosphatase 6 (Rattus norvegicus)
# test: MKP-3 phosphatase inhibitors, primary screen, biochemical, rat enzyme, in vitro (AID 425);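 further: plate controls were vehicle for no effect and reference inhibitor for full effect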
# conditions: recombinant MKP-3 phosphatase activity, fluorescence; at 20 µM; stronger effect = higher value
About 190 (0.17%) of roughly 110,000 compounds were called active. The list comes from a sample in which actives are over-represented; it also holds close analogues and randomly drawn compounds. Entries with a potency or affinity are not part of this list.
Consider the following compounds; for each one, report its inhibition.
One number for each entry, in %.

# structure, unit-symbol, inhibition
records = [
    ("O=C(O)c1cc(O)ccc1NC(=O)C(c1ccccc1)c1ccccc1", "%", 4.4),
    ("O=C1NC(=O)C(=Cc2ccc(-c3cccc(Br)c3)o2)C(=O)N1", "%", 52.6),
]

Provide inhibition values for the following items, in order.
1. O=C1NC(=S)N/C1=C/c1ccc(-c2cccc(Br)c2)o1
2. COc1cc(/C=C2\NC(=S)NC2=O)ccc1OC(=O)C12CC3CC(CC(C3)C1)C2
3. CCOCCOC(=O)c1ccc(NC(=O)/C=C/c2ccc(OC)c(Br)c2)cc1
4. COc1ccc(Cl)cc1C(=O)Nc1ccc(N(C)C)cc1

1: 0.8; 2: -2.6; 3: 2.5; 4: 0.6
